Origin of the recorded values: ChEMBL document CHEMBL5724914

EXPERIMENTAL CONDITIONS: human gut metagenome, 24 h, 2 µM; further: call rule not given here
PROPERTY LABEL: Bacterial Biotransformation

Solved entries (count: 5):
INSERT INTO results (compound, obs_value) VALUES
  ('CNC(=C[N+](=O)[O-])NCCSCc1csc(CN(C)C)n1', 'Compound NOT metabolized'),
  ('OCCN1CCN(CCCN2c3ccccc3Sc3ccc(C(F)(F)F)cc32)CC1', 'Compound NOT metabolized'),
  ('O=P(O)(O)O.c1ccc(CN(CC2=NCCN2)c2ccccc2)cc1 [ANTAZOLINE PHOSPHATE]', 'Compound NOT metabolized'),
  ('NC(=O)N1c2ccccc2CC(=O)c2ccccc21 [OXCARBAZEPINE]', 'Compound NOT metabolized'),
  ('Nc1nc2ccc(OC(F)(F)F)cc2s1', 'Compound NOT metabolized');

Problem: Reported Bacterial Biotransformation, compound CCCCc1nc(Cl)c(CO)n1Cc1ccc(-c2ccccc2-c2nn[nH]n2)cc1 : ____
Result: Compound metabolized

Problem: Can you check Nc1ccc(/N=N/c2ccccc2)c(N)n1 next?
Result: Compound metabolized

Problem: Can you check CC(C)NCC(O)COc1ccc(CCOCC2CC2)cc1 (stereo not given) next?
Result: Compound NOT metabolized

Problem: Can you check CCN(CC)CCNC(=O)c1cc(Cl)c(N)cc1OC [METOCLOPRAMIDE] next?
Result: Compound NOT metabolized

Problem: Can you check CC(C)(Oc1ccc(CCNC(=O)c2ccc(Cl)cc2)cc1)C(=O)O [BEZAFIBRATE] next?
Result: Compound NOT metabolized
